# target: human NTCP (Homo sapiens)
# Sequence (Q14973 whole entry): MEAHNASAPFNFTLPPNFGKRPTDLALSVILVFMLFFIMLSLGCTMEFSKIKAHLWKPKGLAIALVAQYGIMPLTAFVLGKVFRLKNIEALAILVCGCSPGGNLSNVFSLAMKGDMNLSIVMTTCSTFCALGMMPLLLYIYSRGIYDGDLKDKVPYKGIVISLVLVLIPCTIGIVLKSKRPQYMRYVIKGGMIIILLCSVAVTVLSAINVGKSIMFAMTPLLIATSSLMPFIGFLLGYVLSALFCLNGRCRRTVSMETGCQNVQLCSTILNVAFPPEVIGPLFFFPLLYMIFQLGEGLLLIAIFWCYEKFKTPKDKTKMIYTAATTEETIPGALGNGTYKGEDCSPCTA
# run description: Screening taurocholate uptake assay (96-well, [14C]taurocholate, 10 µM drug)
# experimental setup: ranking score beside the functional and binding assay B-scores of the screen
Counter-ions that a name gives are not always drawn. Non-standard residues stand in square brackets, D forms with d. Residues, ends and D or L forms follow the SMILES beside them. *: point of attachment. Sta = CC(C)C[C@H](N)[C@@H](O)CC(=O)O; Isovaleryl = CC(C)CC(=O)*
endpoint label: Ranking score
Keep the answer to the number alone.

Examples with answers:
compound | Ranking score
CC(=O)Nc1c(I)c(C(=O)N[C@H]2C(O)O[C@H](CO)[C@@H](O)[C@@H]2O)c(I)c(N(C)C(C)=O)c1I (stereo partly drawn) [Metrizamide] | 816.081
CC1(C)O[C@@H]2C[C@H]3[C@@H]4C[C@H](F)C5=CC(=O)C=C[C@]5(C)[C@@]4(F)[C@@H](O)C[C@]3(C)[C@]2(C(=O)CO)O1 [Fluocinolone acetonide] | 752.533
O=C1c2c(O)ccc(O)c2C(=O)c2c(NCCNCCO)ccc(NCCNCCO)c21 [Mitoxantrone dihydrochloride] | 807.326
Cc1nnc(SCC2=C(C(=O)O)N3C(=O)[C@@H](NC(=O)Cn4cnnn4)[C@H]3SC2)s1 [Cefazolin sodium salt] | 718.895
O=C(NCCN1CCOCC1)c1ccc(Cl)cc1 [Moclobemide] | 766.363
CN(C)CCc1c[nH]c2ccc(Cn3cncn3)cc12 [Rizatriptan benzoate] | 781.971
Cc1c(-c2ccccc2)oc2c(C(=O)OCCN3CCCCC3)cccc2c1=O [Flavoxate hydrochloride] | 734.394
Nc1c2c(nc3ccccc13)CCCC2 [Tacrine hydrochloride] | 757.813
CCC1(c2ccccc2)C(=O)NCNC1=O | 845.018
CC(=O)O[C@H]1C[C@@H]2CC[C@@H]3[C@H](CC[C@@]4(C)[C@H]3C[C@H]([N+]3(C)CCCCC3)[C@@H]4OC(C)=O)[C@@]2(C)C[C@@H]1N1CCCCC1 [Vecuronium bromide] | 708.114

**Query** Bench note: what Ranking score did Clc1cnccn1 show?
**Result** 812.047

**Query** Also CC(C)CC(=O)N[C@H](C(=O)N[C@H](C(=O)N[C@@H](CC(C)C)[C@@H](O)CC(=O)N[C@@H](C)C(=O)N[C@@H](CC(C)C)[C@@H](O)CC(=O)O)C(C)C)C(C)C [Pepstatin A] (Isovaleryl-VV[Sta]A[Sta]-OH) , if possible.
**Result** 763.991

**Query** // next record Nc1nnc(-c2cccc(Cl)c2Cl)c(N)n1
**Result** 756.135

**Query** Would you kindly repeat that for Cc1cc(N)c2ccccc2[n+]1CCCCCCCCCC[n+]1c(C)cc(N)c2ccccc21 [Dequalinium dichloride] ?
**Result** 680.714

**Query** Also O=C(CCCCC(=O)Nc1c(I)cc(I)c(C(=O)O)c1I)Nc1c(I)cc(I)c(C(=O)O)c1I [Iodipamide] , if possible.
**Result** 831.882
